# EXPERIMENTAL_TARGET: cathepsin A (lysosomal protective protein) (Homo sapiens, UniProt P10619)
# Sequence (P10619 whole entry): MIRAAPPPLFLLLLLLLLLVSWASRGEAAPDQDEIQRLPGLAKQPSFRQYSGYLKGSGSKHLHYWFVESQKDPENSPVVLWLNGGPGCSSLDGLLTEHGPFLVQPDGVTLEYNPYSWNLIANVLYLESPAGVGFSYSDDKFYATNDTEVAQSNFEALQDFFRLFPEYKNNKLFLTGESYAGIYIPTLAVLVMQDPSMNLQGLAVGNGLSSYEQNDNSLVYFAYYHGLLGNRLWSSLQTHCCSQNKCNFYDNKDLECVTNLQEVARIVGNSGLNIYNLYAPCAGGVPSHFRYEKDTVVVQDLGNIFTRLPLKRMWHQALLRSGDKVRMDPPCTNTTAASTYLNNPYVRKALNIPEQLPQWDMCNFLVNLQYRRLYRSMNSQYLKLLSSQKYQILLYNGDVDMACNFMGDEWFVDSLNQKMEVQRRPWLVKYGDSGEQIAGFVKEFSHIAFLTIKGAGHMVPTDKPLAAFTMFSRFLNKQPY
# TEST: Stability in pH 7.4 trizma buffer assessed as cathepsin A (unknown origin)-mediated compound hydrolysis by measuring parent compound remaining at 5.0 mg measured after 12 hrs by 31P-NMR spectroscopic analysis
# Type: ADME
# MEASUREMENT_CONDITIONS: cathepsin A in trizma buffer, pH 7.4, read-out: Stability
OUTCOME_MEASURE: remaining at 12 h (%)
Lab book: enter the figure in %, no units written.

Which value of remaining at 12 h has been reported for C[C@H](NP(=O)(OC[C@H]1O[C@@H](n2cnc3c(NCc4ccco4)ncnc32)[C@H](O)[C@@H]1O)Oc1ccccc1)C(=O)OC(C)(C)C (stereo partly specified) in the records?
50
